pKi: −log10 of the molar value.
Published pKi for Coagulation factor X (Homo sapiens), assembled from different documents, is shown next.
quantity-name: pKi

Worked cases, pKi given:
O=C(Cn1ccnc(NCC(F)(F)c2ccccn2)c1=O)NCc1cc(Cl)ccc1-n1cnnn1	8.00
N=C(N)c1cccc(Oc2c[nH]c(=O)c(Oc3cccc(C(=N)N)c3)n2)c1	6.72
C[C@@H](C(=O)N1CCOCC1)N1CC[C@H](NS(=O)(=O)c2cc3cc(Cl)ccc3[nH]2)C1=O	7.05

(I) O=C(Nc1cccc(OCc2ccc(-c3cc(F)cc(F)c3)cc2)c1)C1CCNCC1
(II) CC(C)N1CCC(NC(=O)c2cc3cccc([N+](=O)[O-])c3n2Cc2cc(-c3cc(Cl)cs3)on2)CC1
-- ask Please compare: I and II . Report which one has the smaller pKi value. Output the label that corresponds to your choice.
-- reply I
(I: 6.89, II: 10.00)

====

Published Ki for UniProt:P00742, assembled from different documents, is shown next.
quantity-name: Ki (nM)

Worked cases, Ki given:
CC(N)=NCc1ccccc1-c1ccc(C(=O)Nc2ccc(Cl)cc2C(=O)Nc2ccc(Cl)cn2)cc1	0.1
COC(=O)CC(CCc1ccc(C(N)=O)cc1)c1cccc(C(=N)N)c1 (centres undefined)	550
CS(=O)(=O)c1ccccc1-c1ccc(NC(=O)c2cc(C(F)(F)F)nn2-c2cccc(C(=N)N)c2)cc1	0.008
CN(C)c1cccc(Oc2cc(C(=O)O)cc(Oc3cc(C(=N)N)ccc3O)n2)c1	12
CC(C)(C)NC(=O)NC1CCN(C(=O)[C@H](Cc2cccc(C(=N)N)c2)NS(=O)(=O)c2cccc(-c3ccc(N)nc3)c2)CC1	4

(1) Cc1cc(C(=O)Nc2ccc(-c3ccccc3S(N)(=O)=O)cc2)n(CCCCN)n1
(2) Cc1cccc2c1cc(C(=O)NCc1ccnc3ccccc13)n2Cc1cccc(C(=N)N)c1
-- ask Please compare: 1 and 2 . Report which one has the smaller Ki value. Output the label that corresponds to your choice.
-- reply 2

(P) CC(C)c1ccc(CCNS(=O)(=O)c2cccc(C(=N)N)c2)cc1
(Q) CNC(=O)CCCC1CCN(C(=O)[C@H](Cc2cccc(C(=N)N)c2)NS(=O)(=O)c2cccc(-c3ccc(OC)cc3OC)c2)CC1
-- ask Which one would you say has the larger Ki value: P , or Q ? Output the label that corresponds to your choice.
-- reply P
(P: 2100 nM, Q: 60 nM)

====

Published Ki for UniProtKB P00742, assembled from different documents, is shown next.
quantity-name: Ki (nM)

N=CNCCCC(NC(=O)CN(CC1(c2ccccc2)CCCC1)C(=O)CCc1ccccc1)B(O)O (centres undefined)	630
CN(C)C(=O)c1cccc(Oc2cc(C(=O)O)cc(Oc3cccc(C(=N)N)c3)n2)c1	263
Cc1c(F)c(Oc2cccc(O)c2)nc(Oc2cccc(C(=N)N)c2)c1F	5000

(I) NC[C@H]1CC[C@H](C(=O)N[C@@H](Cc2ccccc2)c2nc(-c3ccc4c(N)n[nH]c4c3)c(Cl)[nH]2)CC1.O=C(O)C(F)(F)F
(II) Cc1ccc(CNC(=O)[C@H](NC(=O)c2cccc(C(=N)N)c2)c2ccccc2)cc1
(III) COc1ccc(-n2nc(C#N)c(N)c2C(=O)Nc2ccc(-c3ccccc3S(C)(=O)=O)cc2F)cc1
(IV) COc1ccc(-n2nc(S(C)(=O)=O)c3c2C(=O)N(c2ccc(-c4ccccc4CN4CC[C@@H](O)C4)cc2)CC3)cc1
(V) N=C(N)c1ccc(/C=C2\CCCCCCC/C(=C\c3ccc(C(=N)N)cc3)C2=O)cc1
-- ask Put these in order: smallest Ki first, largest last. Kindly provide the labels arranged according to the requested ordering.
-- reply IV, III, II, V, I
(IV: 0.25 nM, III: 8.4 nM, II: 42 nM, V: 960 nM, I: 6390 nM)

====

Published Ki for Coagulation factor X (Homo sapiens), assembled from different documents, is shown next.
quantity-name: Ki (µM)

CCOC(=O)[C@@H]1CCCCC1NC(=O)[C@@H](Cc1ccccc1)c1cccc2ccc(C(=N)N)cc12 (stereo partly specified)	0.53

(A) CCOC(=O)CCC(=O)N(Cc1ccccc1)c1ccc2c(c1)N(C)CC(C)(COc1ccc(C(=N)N)cc1)O2 (stereo unspecified)
(B) N=C(N)c1cccc(C[C@H](NS(=O)(=O)c2cccc(NC(=O)CCN)c2)C(=O)N2CCC(CCNC(=O)NC3CCCCC3)CC2)c1
-- ask Please compare: A and B . Report which one has the smaller Ki value. Output the label that corresponds to your choice.
-- reply B

====

Published Ki for Coagulation factor X (Homo sapiens, UniProt P00742), assembled from different documents, is shown next.
quantity-name: Ki (nM)

Worked cases, Ki given:
Cc1cc(C(=O)Nc2ccc(-c3ccccc3S(N)(=O)=O)cc2F)n(-c2ccc3cc(Cl)ccc3c2)n1	3.4
N=C(N)c1cccc(CN2CC[C@H](NS(=O)(=O)c3ccc4cc(Cl)ccc4c3)C2=O)c1	70
CC(=O)Nc1cc(-c2ccc(C(N)=O)cc2C(=O)O)cc([C@@H]2C[C@](C)(c3ccccc3)c3cc(C(=N)N)ccc3N2)c1 (racemic)	1810
CN(C)Cc1nccn1-c1ccc(CC(=O)c2cc(C(F)(F)F)nn2-c2ccc3onc(N)c3c2)cc1	0.97
N=C(N)NCCC(=O)N1CCN(C(=O)[C@H](Cc2cccc(C(=N)N)c2)NS(=O)(=O)c2ccc(-c3ccccc3)cc2)CC1	10000

(P) COc1cc([C@@H](Nc2ccc(C(=N)N)cc2)C(=O)N[C@H](C(=O)O)c2ccccc2)ccc1OCc1ccccc1
(Q) COc1cccc2c1cc(C(=O)NCCc1cc[n+](C)cc1)n2Cc1cccc(C(=N)N)c1
(R) N=C(N)c1cccc(Cn2c(C(=O)NCc3ccc4ccccc4c3)cc3c(O)cccc32)c1
(S) N=C(N)c1cccc(-n2nc(C(F)(F)F)cc2C(=O)Nc2ccc(-n3cnc4cnccc43)cc2F)c1
(T) COc1ccc(-n2nc(C(F)(F)F)c3c2C(=O)N(c2ccc(C4(CN)CC4)cc2)CC3)cc1
-- ask Put these in order: smallest Ki first, largest last. Kindly provide the labels arranged according to the requested ordering.
-- reply S, T, Q, R, P

====

Published Ki for Coagulation factor X (Homo sapiens, UniProt P00742), assembled from different documents, is shown next.

Worked cases, Ki given:
NC(=O)c1ccc(/C=C2/CCCC/C(=C/c3ccc(C(N)=O)cc3)C2=O)cc1	> 5 µM
N/C(=N\O)c1ccc(CN(NS(=O)(=O)c2ccc3ccccc3c2)C(=O)N2CCCCCC2)cc1	> 75 µM
N=C(N)c1ccc(CNC(=O)CNC(=O)[C@@H](N)CO)cc1	> 1000 µM

Here's the next entry for you.
-- ask // map CC1CCN(C(=O)N(Cc2ccc(C(=N)NO)cc2)NS(=O)(=O)c2ccc3ccccc3c2)CC1 to recorded Ki (system: Coagulation factor X (Homo sapiens, UniProt P00742))
-- reply > 75 µM

====

Published Ki for Coagulation factor X (Homo sapiens, UniProt P00742), assembled from different documents, is shown next.
quantity-name: Ki (µM)

Cc1ccc(NC(=O)c2sc3ccccc3c2Cl)c(C(=O)Nc2ccc(C(=O)O)cc2)c1	4.7
Cc1c(F)c(Oc2cccc(OC(C)C)c2)nc(Oc2cccc(C(=N)N)c2)c1F	0.62
COC(=O)CC1(C(=O)Nc2ccc(-c3ccccc3S(N)(=O)=O)cn2)CC(c2cccc(C(=N)N)c2)=NO1 (stereo in doubt; 30)	0.00096

(A) CS(=O)(=O)c1ccccc1-c1ccc2c(c1)OCCN2C(=O)c1cc(C(F)(F)F)nn1-c1ccc2onc(N)c2c1
(B) C[C@@]1(C(=O)NCc2ccccc2)C[C@@H](C(=O)NCc2ccc(C(=N)N)cc2)n2c1c(Cl)nc(NC1CCC1)c2=O
-- ask Please compare: A and B . Report which one has the smaller Ki value. Output the label that corresponds to your choice.
-- reply A
(A: 0.071 µM, B: 3.7 µM)

(P) COc1ccc(-n2nc(C(N)=O)c3c2C(=O)N(c2ccc(-c4ccccc4CN4CCCC4)cc2)CC3)cc1
(Q) CNC(=O)CCCC1CCN(C(=O)[C@H](Cc2cccc(C(=N)N)c2)NS(=O)(=O)c2cccc(-c3ccc(Cl)cc3Cl)c2)CC1
(R) N=C(N)c1ccc(F)c(CN2CC[C@H](NS(=O)(=O)c3ccc(-c4cccnc4)s3)C2=O)c1
-- ask Put these in order: smallest Ki first, largest last. Kindly provide the labels arranged according to the requested ordering.
-- reply P, Q, R

====

Published Ki for Coagulation factor X (Homo sapiens, UniProt P00742), assembled from different documents, is shown next.
quantity-name: Ki (nM)

COc1ccc(COc2cccc(NC(=O)C3CCN(c4ccncc4)CC3)c2)cc1	11100

(a) CC[C@@H](NC(=O)c1ccc(-c2cccc(CN)c2)cc1)[C@@H](Cc1cccc(C(=N)N)c1)C(=O)OC
(b) CCOc1cc(C(Nc2ccc3c(N)nccc3c2)C(=O)NS(=O)(=O)c2ccccc2)ccc1OC(C)C (stereo unspecified)
(c) Cc1cc(C)cc(C(C)(C)CN(CC(=O)NC(CCCCN)B(O)O)C(=O)CCc2ccccc2)c1 (stereo unspecified)
(d) Cc1cc(C(=O)Nc2ccc(N3CCOCC3=O)cc2)n(-c2ccc3cc(Cl)ccc3c2)n1
(e) CCOC(=O)CC(CCc1ccc(C(=N)N)cc1)c1ccc(C(=N)N)cc1 (stereo unspecified)
-- ask Put these in order: smallest Ki first, largest last. Kindly provide the labels arranged according to the requested ordering.
-- reply d, a, c, b, e
(d: 0.3 nM, a: 0.7 nM, c: 810 nM, b: 3500 nM, e: 22900 nM)
